- System: MDA-MB-231 breast cancer cells
- testDescription: Inhibition of IFN-gamma-dependent growth of MDA-MB-231 cells, MTT assay, 48 hours
- Format: cell-based
- conditionInfo: 48 h
Residues, ends and D or L forms follow the SMILES beside them. *: point of attachment. Palmitoyl = CCCCCCCCCCCCCCCC(=O)*
The following molecules are listed with their measured GI50 values.
metricName: GI50 (nM)

>>> observed("CCCCCCCCCCCCCCCC(=O)NCCCC[C@H](N)C(=O)NCC(=O)N[C@@H](Cc1ccc(O)cc1)C(=O)N[C@@H](CC(=O)O)C(=O)N[C@@H](CCCCN)C(=O)N1CCC[C@H]1C(=O)N[C@@H](Cc1c[nH]cn1)C(=O)N[C@H](C(=O)N[C@@H](CC(C)C)C(=O)N[C@H](C(N)=O)C(C)C)C(C)C [IFNGR1-12, ε-Pal-KGYDKPHVLV-NH2] (H-K(Palmitoyl)GYDKPHVLV-NH2; N-terminus assumed)")
600
>>> observed("CCCCCCCCCCCCCCCC(=O)NCCCC[C@H](N)C(=O)N[C@@H](CO)C(=O)N[C@H](C(=O)N[C@@H](C)C(=O)N[C@@H](CC(C)C)C(=O)N[C@@H](CC(N)=O)C(=O)N[C@@H](CO)C(=O)N[C@@H](Cc1ccc(O)cc1)C(=O)N[C@@H](Cc1c[nH]cn1)C(=O)N[C@@H](CO)C(=O)N[C@@H](CCCNC(=N)N)C(=O)N[C@@H](CC(N)=O)C(N)=O)[C@@H](C)CC [IFNGR1-8, ε-Pal-KSIALNSYHSRN-NH2] (H-K(Palmitoyl)SIALNSYHSRN-NH2; N-terminus assumed)")
5000
>>> observed("CCCCCCCCCCCCCCCC(=O)NCCCC[C@H](N)C(=O)NCC(=O)N[C@@H](CCCCN)C(=O)N[C@@H](CCC(=O)O)C(=O)N[C@@H](CO)C(=O)N[C@@H](CC(C)C)C(=O)N[C@H](C(=O)NCC(=O)N[C@@H](Cc1ccc(O)cc1)C(=O)N[C@@H](CCCNC(=N)N)C(=O)N1CCC[C@H]1C(=O)N[C@H](C(N)=O)[C@@H](C)O)[C@@H](C)CC [IFNGR1-6, ε-Pal-KGKESLIGYRPT-NH2] (H-K(Palmitoyl)GKESLIGYRPT-NH2; N-terminus assumed)")
70

----------
- Test system: MDA-MB-231 breast cancer cells
- testDescription: Inhibition of IFN-gamma-dependent growth of MDA-MB-231 cells, MTT assay, 48 hours
- Format: cell-based
- conditionInfo: 48 h
Residues, ends and D or L forms follow the SMILES beside them. *: point of attachment. Palmitoyl = CCCCCCCCCCCCCCCC(=O)*
metricName: GI50 (µM)

>>> observed("CCCCCCCCCCCCCCCC(=O)N[C@H](C(=O)N[C@@H](CC(C)C)C(=O)N1CCC[C@H]1C(=O)N[C@@H](CCCCN)C(=O)N[C@@H](CO)C(=O)N[C@@H](CC(C)C)C(=O)N[C@@H](CC(C)C)C(=O)N[C@@H](CO)C(=O)N[C@H](C(=O)N[C@H](C(=O)N[C@@H](CCCNC(=N)N)C(=O)N[C@@H](CO)C(=O)N[C@@H](C)C(=O)N[C@H](C(N)=O)[C@@H](C)O)C(C)C)C(C)C)[C@@H](C)CC [IFNGR1-4, ε-Pal-ILPKSLLSVVRSAT-NH2] (Palmitoyl-ILPKSLLSVVRSAT-NH2)")
2.5
>>> observed("CCCCCCCCCCCCCCCC(=O)NCCCC[C@H](N)C(=O)N[C@@H](CC(C)C)C(=O)N[C@@H](CC(N)=O)C(=O)N[C@@H](CO)C(=O)N[C@@H](Cc1ccc(O)cc1)C(=O)N[C@@H](Cc1c[nH]cn1)C(=O)N[C@@H](CO)C(=O)N[C@@H](CCCNC(=N)N)C(=O)N[C@@H](CC(N)=O)C(=O)NCC(=O)N[C@@H](CO)C(N)=O [IFNGR1-13, ε-Pal-KLNSYHSRNGS-NH2] (H-K(Palmitoyl)LNSYHSRNGS-NH2; N-terminus assumed)")
4.5
>>> observed("CCCCCCCCCCCCCCCC(=O)NCCCC[C@H](N)C(=O)NCC(=O)N[C@@H](Cc1ccc(O)cc1)C(=O)N[C@@H](CC(=O)O)C(=O)N[C@@H](CCCCN)C(=O)N1CCC[C@H]1C(=O)N[C@@H](Cc1c[nH]cn1)C(=O)N[C@H](C(N)=O)C(C)C [IFNGR1-15, ε-Pal-KGYDKPHV-NH2] (H-K(Palmitoyl)GYDKPHV-NH2; N-terminus assumed)")
1.6
>>> observed("CCCCCCCCCCCCCCCC(=O)NCCCC[C@H](N)C(=O)NCC(=O)NCC(=O)N[C@@H](CCCCN)C(=O)N[C@@H](CCC(=O)O)C(=O)N[C@@H](CO)C(=O)N[C@@H](CC(C)C)C(=O)N[C@H](C(=O)NCC(=O)N[C@@H](Cc1ccc(O)cc1)C(=O)N[C@@H](CCCNC(=N)N)C(N)=O)[C@@H](C)CC [IFNGR1-10, ε-Pal-KGGKESLIGYR-NH2] (H-K(Palmitoyl)GGKESLIGYR-NH2; N-terminus assumed)")
2.5
